target: SARS2 coronavirus 3CL protease (Severe acute respiratory syndrome coronavirus 2); test: biochemical; details: 5 nM enzyme, 30 min pre-incubation with compound, 15 μM peptide substrate, 4 h at room temperature; read-out: FRET Potency (nM); IC50 values in the SARS2 3CLPro FRET assay
Quick reference: IC50 of the listed items.
Express your answer in nM, writing the number without its unit.

The following compounds have reported results that may help.
compound: C[C@@H]1C[C@@H](C[C@H](NC(=O)c2cc(Cl)cnc2NC(=O)C23CC(F)(C2)C3)C(=O)C(=O)NC2CC2)C(=O)N1 [Example 27]
testedTarget: SARS2 coronavirus 3CL protease (Severe acute respiratory syndrome coronavirus 2)
IC50, nM: 13.6
--
compound: CNC(=O)C(=O)[C@H](C[C@@H]1C[C@@H](C)NC1=O)NC(=O)c1cc(Cl)ccc1NC(=O)C1CC1 [Example 122]
testedTarget: SARS2 coronavirus 3CL protease (Severe acute respiratory syndrome coronavirus 2)
IC50, nM: 8.1

Moving on to the next compound.
IN: What IC50 value was documented for this compound, O=C(NC1CC1)C(=O)[C@H](C[C@@H]1CCNC1=O)NC(=O)c1cc(Cl)c(F)cc1NC(=O)c1cncc(C(F)(F)F)c1 [Example 79] ?
OUT: 11.3
